From: PubChem BioAssay (Tox21)

molecular target: Luciferin 4-monooxygenase (Photinus pyralis); experiment: qHTS assay to identify small molecule inhibitors of firefly luciferase (AID 1224835); also: nearly all actives have a fitted effect of over 25% in size; details: purified P. pyralis luciferase, luminescence inhibition; series mostly up to 115 µM
Records with an inconclusive call do not appear. Activity calls are given as the source filed them. Calls follow the shape of the dose curve; as a rule, active = well fitted inhibition curve with a large enough effect in the repeat runs; inconclusive = weak or mixed curves; inactive = flat fitted curve, though single readings scatter.
Can you answer with just one of these options? active, inactive

These recorded examples may help you get a feel for the data.
Molecule	Category Label
Oc1ccc(Cl)cc1C1CCCC1	inactive
COC(=O)c1ccc([N+](=O)[O-])cc1	inactive
COc1cc(OC)nc(NC(=O)NS(=O)(=O)Nc2ccccc2C(=O)N(C)C)n1	inactive
CCOC(=O)[C@H](C)O	inactive
O=C1OC(O)C(C(Cl)Cl)=C1Cl (centres undefined)	inactive
O=C(NCc1ncc(C(F)(F)F)cc1Cl)c1c(Cl)cccc1Cl	inactive
CN(C)CCOc1ccc(/C(=C(/CCCl)c2ccccc2)c2ccccc2)cc1	inactive
CC(C)c1ccc2sc3ccccc3c(=O)c2c1	active

Inquiry: Returns: the outcome recorded for CCOC(=O)C1=NN(c2ccc(Cl)cc2Cl)C(C)(C(=O)OCC)C1 (centres undefined) in this assay.
Reply text: inactive

Inquiry: Returns: the outcome recorded for Nc1ccc(F)c([N+](=O)[O-])c1 in this assay.
Reply text: inactive

Inquiry: Returns: the outcome recorded for Cc1cc(F)ccc1-c1cc(N2CC[C@@H](O)[C@H]2CO)ncc1N(C)C(=O)C(C)(C)c1cc(C(F)(F)F)cc(C(F)(F)F)c1 in this assay.
Reply text: inactive

Inquiry: Returns: the outcome recorded for c1ccc(-c2ccccc2-c2ccccc2)cc1 in this assay.
Reply text: inactive

Inquiry: Returns: the outcome recorded for CC(C)(C)c1ccc(OC2CCCCC2O)cc1 (centres undefined) in this assay.
Reply text: active

Inquiry: Returns: the outcome recorded for O[Si](c1ccccc1)(c1ccccc1)c1ccccc1 in this assay.
Reply text: inactive
